- Test system: HCT-15 colon
- protocol-description: NCI tumour cell line growth inhibition, 48 h
*1 amine or outer side, *2 acyl side, *3 side chain or, on linkers, in order; H or OH if unused. Where a SMILES comes first, the peptide text is derived from it. [ ]: non-standard residue; d: D form. The star is where a group is joined. ξ: configuration not given here. NMeY = CN[C@@H](Cc1ccc(O)cc1)C(=O)O; Ethylenediamine = C(CN[*:2])N[*:1]; ξNMeL = CNC(CC(C)C)C(=O)O; Cbz = O=C(OCc1ccccc1)*; Lac = C[C@H](O)C(=O)O; ξA = CC(N)C(=O)O
endpoint-name: TGI

Field: example entries. Status: answers known.
compound	TGI
Clc1ccc(C2CC(c3cccc(Nc4ccncc4)c3)=NN2c2ccc(Cl)cc2)cc1 (configuration not stated)	2.95 µM
CO/N=C(/C)c1cccc(Nc2nc3ccc(Cl)cc3c3[nH]c4ccccc4c23)c1	27.1 µM
CC(C)(C)OC(=O)N1CC(CCl)c2ccc(O)cc21 (configuration not stated)	10 µM
COc1ccc(C[C@@H](C(=O)NCCNC(=O)C(CC(C)C)N(C)C(=O)[C@@H]2CCCN2C(=O)[C@H](C)O)N(C)C(=O)[C@@H]2CCCN2C(=O)[C@H](CC(C)C)NC(=O)C(C)NC(=O)OCc2ccccc2)cc1 (some centres not stated) (Cbz-[ξA]LP[NMeY](Me)-{Ethylenediamine-ξNMeL-Pro-Lac})	> 100 µM

Hi, could you look up TGI for each item in my list?
1. O=C(O)C(O)(c1ccc(-c2ccccc2)cc1)c1ccc(-c2ccccc2)cc1
2. CC(C)(C)OC(=O)NCCCCn1c2c(c3ccccc3c1=O)C(=O)c1ccccc1-2

OUTPUT:
["41.5 µM", "> 100 µM"]

Hi, could you look up TGI for each item in my list?
1. COc1cc2c(cc1OC)C1c3ccccc3CCN1CCC2 (configuration not stated)
2. Nc1c(OCC(=O)O)ccc2cc(S(=O)(=O)O)ccc12
3. C[C@]12Cc3cnc(-c4ccccc4)nc3C[C@@H]1CC[C@@H]1[C@@H]2CC[C@@]2(C)[C@H]1CC[C@]2(C)O
4. c1ccc2c(c1)nc1n2CSCC1
5. O/N=C1\CC2(N3CCOCC3)CCC1(c1ccccc1)CC2
6. CCOC(=O)Nc1nc2ccccc2[nH]1
7. C[C@@H](CC(=O)O)OC1OC(COC(=O)C(C)(C)C)C(OC(=O)C(C)(C)C)C(OC(=O)C(C)(C)C)C1OC(=O)C(C)(C)C (some centres not stated)
8. CCCN(CCC)C(=S)N/N=C(/C)c1ccccc1O

OUTPUT:
["> 100 µM", "> 100 µM", "> 63.2 µM", "> 100 µM", "> 100 µM", "> 100 µM", "84.9 µM", "> 93.2 µM"]

Hi, could you look up TGI for each item in my list?
1. Cc1cccc(C)c1NC(=O)CCc1nnc2s/c(=C\c3ccc(N(C)C)cc3)c(=O)n12
2. C/C(=N\NC(N)=S)c1ccc(C)c(C)c1

OUTPUT:
1. > 100 µM
2. > 100 µM

Hi, could you look up TGI for each item in my list?
1. C=C1[C@H]2O[C@H]2[C@@H](OC(C)=O)[C@@]2(C)[C@@H](OC(C)=O)C[C@@H](OC(=O)CCC)[C@@](C)(O)[C@@H]2[C@@H](OC(C)=O)[C@]2(O)[C@@H](C)C(=O)O[C@H]2[C@H]1Cl
2. COc1ccc2c(c1)c1c(n2CCN2CCOCC2)-c2cccc(OC)c2CC1
3. CC(=O)Nc1ccc2c3c(cc(O)c2c1)N(C(=O)CCCCC(=O)N1CC(CCl)c2c1cc(O)c1cc(NC(C)=O)ccc21)CC3CCl (configuration not stated)
4. CC(C)(C)c1cc2c(c(C(C)(C)C)c1O)CC(=O)O2
5. Cc1ccc(C(=O)NCCCOc2ccc(N3C(N)=NC(N)=NC3(C)C)cc2Cl)cc1S(=O)(=O)F
6. COc1cc2cc(C(=O)N3CC(CCl)c4ccc([N+](C)(C)Cc5ccc([N+](=O)[O-])cc5)cc43)[nH]c2c(OC)c1OC (configuration not stated)
7. Cc1cccc(NC(=O)O/N=C(\Cl)C(C)C)c1

OUTPUT:
["> 100 µM", "> 100 µM", "> 70.6 µM", "> 100 µM", "> 100 µM", "31 µM", "4.98 µM"]

Hi, could you look up TGI for each item in my list?
1. O=NN1C(c2ccccc2)C2CCCC(C2=O)C1c1ccccc1 (configuration not stated)
2. O=C(CSCC(=O)N/N=C/c1ccccc1O)N/N=C\c1ccccc1O
3. Nc1ncnc2c1ncn2C1OC(COS(N)(=O)=O)C(O)C1O (configuration not stated)
4. Cc1csc(NNC(N)=O)n1

OUTPUT:
> 87.7 µM
> 100 µM
0.0071 µM
> 100 µM
